Tested on: CCRF-CEM/VBL100
Experiment: cells
Type: cell-based, human
Settings: listed as Epo B; read-out: IC50
measuredAttribute: IC50 (nM)
The reply should be a number in nM, with the unit left off.

Query (molecule): C/C(=C\c1csc(C)n1)[C@@H]1C[C@@H]2O[C@]2(C)CCC[C@H](C)[C@H](O)[C@@H](C)C(=O)C(C)(C)[C@@H](O)CC(=O)O1 [Epothilone B, epothilone B] ; field requested: IC50
2.1

---

System: CCRF-CEM/VM1
Assay: cells
Format: cell-based, human
Conditions: Table 6; single determinations; read-out: IC50
measuredAttribute: pIC50
Remember the convention: pIC50 equals -log10 of concentration in molar.

Examples with answers:
[
  {
    "compound": "CC(=Cc1csc(C)n1)C1CC2OC2CCCCC(O)C(C)C(=O)C(C)(C)C(O)CC(=O)O1 (mixture of isomers) [8-desmethyl Mix-cis Epo]",
    "pIC50": 5.59
  },
  {
    "compound": "C=CC[C@H](OC(=O)C[C@H](O)C(C)(C)C(=O)[C@H](C)[C@@H](O)[C@@H](C)CCCC(=C)C)/C(C)=C/c1csc(C)n1 [#13]",
    "pIC50": 4.84
  }
]

API: the following record is the query input.
Please look up its pIC50: C/C(=C\c1csc(C)n1)[C@@H]1C/C=C\CCC[C@H](C)[C@H](O)[C@@H](C)C(=O)C(C)(C)[C@@H](O)CC(=O)O1 [Desoxyepothilone A, desoxyepothilone A]
7.89

---

// IC50 lookup, one value per entry
Test system: CCRF-CEM/VM1
Experiment: cells
Format: cell-based, human
Details: Homo sapiens, CCRF-CEM, 72 h, Table 1A; XTT
Counter-ions that a name gives are not always drawn.
A number alone suffices; assume nM.

[
  {
    "compound": "CC[C@]1(O)C[C@@H]2CN(CCc3c([nH]c4ccccc34)[C@@](C(=O)OC)(c3cc4c(cc3OC)N(C)[C@H]3[C@@](O)(C(=O)OC)[C@H](OC(C)=O)[C@]5(CC)C=CCN6CC[C@]43[C@@H]65)C2)C1 [Vinblastine, Vinblastine sulfate]",
    "observedValue": 0.41
  },
  {
    "compound": "CC(=O)O[C@H]1C(=O)[C@@]2(C)[C@H]([C@H](OC(=O)c3ccccc3)[C@]3(O)C[C@H](OC(=O)[C@H](O)[C@@H](NC(=O)c4ccccc4)c4ccccc4)C(C)=C1C3(C)C)[C@]1(OC(C)=O)CO[C@@H]1C[C@@H]2O",
    "observedValue": 6.6
  }
]

// query IC50 value for entry COc1cccc2c1C(=O)c1c(O)c3c(c(O)c1C2=O)C[C@@](O)(C(=O)CO)C[C@@H]3O[C@H]1C[C@H](N)[C@H](O)[C@H](C)O1 [Adriamycin, doxorubicin or adriamycin HCl]
128

Any idea what IC50 was measured for COc1cc([C@@H]2c3cc4c(cc3[C@@H](O[C@@H]3O[C@@H]5CO[C@@H](C)O[C@H]5[C@H](O)[C@H]3O)[C@H]3COC(=O)[C@H]23)OCO4)cc(OC)c1O [Etoposide, etoposide] ?
34400

---

Tested on: PC-3 Human Prostate Carcinoma
Assay: PC-3 xenograft
Format: in vivo, nude mice
Settings: dEpoB 30 mg/kg 18 hr i.v. infusion, Taxol 16 mg/kg 6 hr infusion, VBL 2 and VP-16 25 mg/kg i.v. inj
measuredAttribute: Average Body Weight (change), Day 11 (g)
Return type: number; implicit unit g.

[
  {
    "molecule": "CC(=O)O[C@H]1C(=O)[C@@]2(C)[C@H]([C@H](OC(=O)c3ccccc3)[C@]3(O)C[C@H](OC(=O)[C@H](O)[C@@H](NC(=O)c4ccccc4)c4ccccc4)C(C)=C1C3(C)C)[C@]1(OC(C)=O)CO[C@@H]1C[C@@H]2O",
    "unitSpec": "g",
    "Average Body Weight (change), Day 11": -0.9
  },
  {
    "molecule": "C/C1=C/C[C@@H](/C(C)=C/c2csc(C)n2)OC(=O)C[C@H](O)C(C)(C)C(=O)[C@H](C)[C@@H](O)[C@@H](C)CCC1",
    "unitSpec": "g",
    "Average Body Weight (change), Day 11": -5.9
  }
]

Could you now look at the following molecule, please?
Name the recorded Average Body Weight (change), Day 11 for COc1cc([C@@H]2c3cc4c(cc3[C@@H](O[C@@H]3O[C@@H]5CO[C@@H](C)O[C@H]5[C@H](O)[C@H]3O)[C@H]3COC(=O)[C@H]23)OCO4)cc(OC)c1O [Etoposide, etoposide] .
-0.1

---

Test system: CCRF-CEM human T-cell acute lymphoblastic leukemia cell line
Experiment: XTT cytotoxicity (cell growth inhibition), CCRF-CEM
Conditions: Table 5; single determinations
pIC50: −log10 of the molar value.
Returns one of 1 or 0; 1 when pIC50 is >= 8.

See these solved cases before continuing.
[
  {
    "compound": "CCC/C1=C\\C[C@@H](/C(C)=C/c2csc(C)n2)OC(=O)C[C@H](O)C(C)(C)C(=O)[C@H](C)[C@@H](O)[C@@H](C)CCC1",
    "measuredOn": "CCRF-CEM human T-cell acute lymphoblastic leukemia cell line",
    "group": 0
  },
  {
    "compound": "CC[C@@]12CCC[C@H](C)[C@H](O)[C@@H](C)C(=O)C(C)(C)[C@@H](O)CC(=O)O[C@H](/C(C)=C/c3csc(C)n3)C[C@@H]1O2",
    "measuredOn": "CCRF-CEM human T-cell acute lymphoblastic leukemia cell line",
    "group": 1
  },
  {
    "compound": "C/C(=C\\c1coc(C)n1)[C@@H]1C/C=C\\CCC[C@H](C)[C@H](O)[C@@H](C)C(=O)C(C)(C)[C@@H](O)CC(=O)O1",
    "measuredOn": "CCRF-CEM human T-cell acute lymphoblastic leukemia cell line",
    "group": 0
  },
  {
    "compound": "CCC1=CCC(C(C)=Cc2csc(C)n2)OC(=O)CC(O)C(C)(C)C(=O)C(C)C(O)C(C)CCC1 (centres unmarked)",
    "measuredOn": "CCRF-CEM human T-cell acute lymphoblastic leukemia cell line",
    "group": 0
  }
]

Next:
# bool: pIC50 of "C/C(=C\c1csc(C)n1)[C@@H]1C[C@@H]2O[C@]2(C)CCC[C@H](C)[C@H](O)[C@@H](C)C(=O)C(C)(C)[C@@H](O)CC(=O)O1" >= 8
1

---

System: DC-3F/ADX
Assay: cells
Type: cell-based, hamster
Settings: Table 3; read-out: IC50
Experimental: The DC-3F hamster lung fibroblast cell line and its actinomycin D-selected sublines (DC-3F/ADII and DC-3F/ADX) were obtained from the Memorial Sloan-Kettering Cancer Center (MSKCC). […] The cytotoxicity of the drug toward the monolayer cell cultures (such as DC-3F, MCF-7, SK-N-As and sublines) was determined in 96-well microtiter plates by the SRB method as described by Skehan and co-workers (Skehan, P., et al., J. Natl. Cancer Inst. 1990, 82, 1107-1112) for measuring the cellular protein content. […]
Starred links: 1 amine or outer side, 2 acyl side, 3 side chain; linkers in the order of their positions; H or OH if unused. Positions of bridges follow the written chain, without caps; N, C: chain ends. Non-standard residues stand in square brackets, D forms with d. Residues, ends and D or L forms follow the SMILES beside them. Chains are numbered I, II in the order given. Actinocin(9to1) = Cc1c2oc3c(C)ccc(C(=O)[*:1])c3nc-2c(C(=O)[*:2])c(N)c1=O; NMeV = CN[C@H](C(=O)O)C(C)C; Sar = CNCC(=O)O
Here the recorded IC50 is given for each entry.
Give the number; nM is assumed, so skip it.

[
  {
    "molecule": "CC(=Cc1csc(C)n1)C1CC=CCCCC(C)C(O)C(C)C(O)C(C)(C)C(O)CC(=O)O1 (stereo not drawn) [#2]",
    "measuredAttribute": "IC50",
    "observedValue": 4810
  },
  {
    "molecule": "C/C(=C\\c1csc(C)n1)[C@@H]1C[C@@H]2O[C@@H]2CCC[C@H](C)[C@H](O)[C@@H](C)C(=O)C(C)(C)[C@@H](O)CC(=O)O1 [EPOTHILONE A SYNTHETIC, epothilone A]",
    "measuredAttribute": "IC50",
    "observedValue": 70
  },
  {
    "molecule": "CC(=Cc1csc(C)n1)C1CC2OC2CC=CCCCCC(C)(C)CCC(=O)O1 (stereo not drawn) [#3]",
    "measuredAttribute": "IC50",
    "observedValue": 972
  },
  {
    "molecule": "C/C(=C\\c1csc(C)n1)[C@@H]1C/C=C\\CCC[C@H](C)[C@H](O)[C@@H](C)C(=O)C(C)(C)[C@@H](O)CC(=O)O1 [Desoxyepothilone A, desoxyepothilone A]",
    "measuredAttribute": "IC50",
    "observedValue": 42
  },
  {
    "molecule": "C/C(=C\\c1csc(C)n1)[C@@H]1C[C@@H]2O[C@@H]2CCC[C@H](C)[C@H](O)[C@@H](C)C(=O)C(C)(C)[C@@H](O)CC(=O)O1 [EPOTHILONE A NATURAL, epothilone A]",
    "measuredAttribute": "IC50",
    "observedValue": 53.3
  }
]

Shift focus to the following entry.
Given Cc1c2oc3c(C)ccc(C(=O)N[C@@H]4C(=O)N[C@H](C(C)C)C(=O)N5CCC[C@H]5C(=O)N(C)CC(=O)N(C)[C@@H](C(C)C)C(=O)O[C@@H]4C)c3nc-2c(C(=O)N[C@@H]2C(=O)N[C@H](C(C)C)C(=O)N3CCC[C@H]3C(=O)N(C)CC(=O)N(C)[C@@H](C(C)C)C(=O)O[C@@H]2C)c(N)c1=O [Actinomycin D, actinomycin D] (I: T[dV]P[Sar][NMeV] / II: T[dV]P[Sar][NMeV]; ester I:1-I:C, II:1-II:C; linker I:N-II:N via Actinocin(9to1)) , state its recorded IC50.
486
